Measured pKI by item
target: MBP-RAMP2 ECD [L106R]-(GS)5-CLR ECD-H6 fusion protein (human) (UniProt O60895); assay: FP competition vs FITC-AM W/W probe, purified ECD fusion
Sequence (O60895 other isoform, or with tags, fused parts or gaps L106R L106R): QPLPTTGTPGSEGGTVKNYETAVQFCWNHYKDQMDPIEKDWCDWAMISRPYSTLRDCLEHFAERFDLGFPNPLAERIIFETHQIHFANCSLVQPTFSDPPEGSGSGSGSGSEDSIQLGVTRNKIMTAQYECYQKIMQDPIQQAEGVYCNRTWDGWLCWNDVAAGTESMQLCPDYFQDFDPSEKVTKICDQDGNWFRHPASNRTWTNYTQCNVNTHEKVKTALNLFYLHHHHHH
Where no end group is shown, it is not given here.
Answer using only a numeral; do not append any unit.

binder="DKDNVAPRSKISPQGY-NH2 [AM(37-52)NH2]" observable=pKI measurement=4.69
binder="DKDNVAPRTWISPWGY-NH2 [AM(37-52)NH2[S45T, K46W, Q50W]]" observable=pKI measurement=4.9
binder="FVPTDTGPWSF-NH2 [CGRP(27-37)NH2 [N31D, V32T, S34P, K35W, A36S]]" observable=pKI measurement=5.56

API: the following record is the query input.
Entry DKDNVAPRWMISPWGF-NH2 [AM(37-52)NH2 [S45W, K46M, Q50W, Y52F]] : reported pKI = ?
5.11

These entries and their values trace back to patent US20180141989A1.
